Hey, just so you know, these numbers are from patent US10526323B2.

- TESTED TARGET: mGluR4 (UniProt Q14833)
- METHOD DESCRIPTION: mGluR4 potentiation assay: increase in response to an EC20 concentration of agonist (species not given)
- EXPERIMENTAL SETUP: EC50 for potentiation of mGluR4; table does not state human or rat
- From the text: The disclosed compounds and compositions can be evaluated for their ability to act as a potentiator of metabotropic glutamate receptor activity, in particular mGluR4 activity, by any suitable known methodology known in the art. […] The cells were loaded with either a Ca2+-sensitive fluorescent dye or the thallium responsive dye and the plates were washed and placed into a suitable kinetic plate reader. […]
A collection of compounds and their measured EC50
Return type: number; implicit unit nM.

>  <COMPOUND>
COc1cc(Nc2n[nH]c3nccnc23)cc2c1cnn2C

>  <MEASUREMENT TYPE>
EC50

>  <ASSAY RESULT>
247

$$$$
>  <COMPOUND>
Cn1nc(C2(C)CC2)c2ccc(Nc3n[nH]c4nccnc34)cc21

>  <MEASUREMENT TYPE>
EC50

>  <ASSAY RESULT>
25

$$$$
>  <COMPOUND>
Cn1nc(OCCN2CCOCC2)c2c(Cl)cc(Nc3n[nH]c4cccnc34)cc21

>  <MEASUREMENT TYPE>
EC50

>  <ASSAY RESULT>
322

$$$$
>  <COMPOUND>
Cn1ncc2ncc(Nc3n[nH]c4nccnc34)cc21

>  <MEASUREMENT TYPE>
EC50

>  <ASSAY RESULT>
3530

$$$$

Value lookup for EC50; key = Clc1cc(Nc2n[nH]c3nccnc23)cc2cnn(CC3CCC3)c12 67

Item C=C(C)Cn1nc(C)c2cc(Nc3n[nH]c4nccnc34)ccc21 has what recorded EC50? 49

Please give the measured EC50 for this compound: Cc1nn(CC(C)C)c2ccc(Nc3n[nH]c4cccnc34)cc12 95

May I ask what EC50 has been recorded for c1cnc2c(Nc3ccc4c(cnn4CC4CCC4)c3)n[nH]c2c1 ? 167

What does the record list as EC50 for CC[C@H](C)Cn1nc(C)c2cc(Nc3n[nH]c4cccnc34)cnc21 ? 160

###

- TESTED TARGET: mGluR4 (UniProt Q14833)
- METHOD DESCRIPTION: mGluR4 potentiation assay: increase in response to an EC20 concentration of agonist (species not given)
- EXPERIMENTAL SETUP: EC50 for potentiation of mGluR4; table does not state human or rat
pEC50: −log10 of the molar value.
pEC50 values by entry

These recorded examples may help you get a feel for the data.
>  <SMILES CODE>
Cc1nn(CCO)c2ncc(Nc3n[nH]c4cccnc34)cc12

>  <MEASUREMENT TYPE>
pEC50

>  <ASSAY RESULT>
< 5.00

$$$$
>  <SMILES CODE>
Cc1nn(C2CCNCC2)c2ccc(Nc3n[nH]c4cccnc34)cc12

>  <MEASUREMENT TYPE>
pEC50

>  <ASSAY RESULT>
< 5.00

$$$$

pEC50 lookup needed for c1cnc2c(Nc3cnc4cnn(CC5CCC5)c4c3)n[nH]c2c1 , thanks. < 5.00

###

- TESTED TARGET: mGluR4 (UniProt Q14833)
- METHOD DESCRIPTION: mGluR4 potentiation assay: increase in response to an EC20 concentration of agonist (species not given)
- Type: cell-based
- EXPERIMENTAL SETUP: EC50 for potentiation of mGluR4; table does not state human or rat
Kindly apply the following: MET if EC50 is less than 300 nM, NOT MET in every other case.

>  <COMPOUND>
Cn1ncc2cc(Nc3n[nH]c4c3CCCC4)cc(Cl)c21

>  <ASSIGNED CLASS>
NOT MET

$$$$
>  <COMPOUND>
CCC(C)n1nc(Cl)c2cc(Nc3n[nH]c4cccnc34)ccc21 (stereo not shown)

>  <ASSIGNED CLASS>
NOT MET

$$$$
>  <COMPOUND>
c1cnc2c(Nc3cnc4cnn(CC5CCC5)c4c3)n[nH]c2n1

>  <ASSIGNED CLASS>
NOT MET

$$$$
>  <COMPOUND>
Cc1cc(Cn2ncc3cc(Nc4n[nH]c5cccnc45)cc(Cl)c32)no1

>  <ASSIGNED CLASS>
MET

$$$$
>  <COMPOUND>
c1cnc2c(Nc3ccc4c(cnn4CC4CCC4)c3)n[nH]c2n1

>  <ASSIGNED CLASS>
MET

$$$$

# TODO verify EC50 < 300 nM strictly for this compound: Cc1nn(C(C)(C)C)c2ccc(Nc3n[nH]c4cccnc34)cc12 NOT MET

Is it true that EC50 reported for Cc1cc(Cn2nc(Cl)c3cc(Nc4n[nH]c5cccnc45)ccc32)no1 is less than 300 nM? MET

In the record for Cc1ccccc1Cc1nn(C)c2cc(Nc3n[nH]c4cccnc34)ccc12 , is EC50 less than 300 nM? NOT MET

Consider Cn1nc(OCC2CCCCO2)c2ccc(Nc3n[nH]c4cccnc34)cc21 (stereo not shown) . Does its EC50 lie strictly below 300 nM? MET
